Biological target: human recombinant 5-HT2C receptor (Homo sapiens (Human))
Test: biochemical
Type: binding
Settings: human serotonin 5-HT2C receptor binding, [3H]-Mesulergine; read-out: h-5-HT2C Ki
pKi: −log10 of the molar value.
Examples of compounds with documented pKi follow.

- compound: "Cc1cnc(CN(C(=O)NCc2ccc(OCC(C)C)cc2)C2CCN(C)CC2)cn1"
  pKi: "< 7.00"

## Input Recorded pKi of `CC(C)COc1ccc(CNC(=O)N(Cc2ncc(F)cc2O)C2CCN(C)CC2)cc1` , please.
## Output 7.00 to 8.00

----------
Examples of compounds with documented Ki follow.
Target: human recombinant 5-HT2A receptor (Homo sapiens (Human), UniProt P28223)
Test: biochemical
Assay type: binding
Conditions: [3H]-Ketanserin 3 nmol/L, Jump-In HEK cell membrane; read-out: human serotonin 5-HT2A receptor binding activity, Ki
# unit: nM | format: bare number

Sample answers from the record:
- compound: "COCc1ccc(CNC(=O)N(Cc2ccc(C)cn2)C2CCN(C)CC2)cc1 [Compound I-130]"
  quantitative-readout: 15.3
- compound: "CN1CCC(N(Cc2ccc(F)cn2)C(=O)NCc2ccc(Cl)cc2)CC1 [Compound I-084]"
  quantitative-readout: 5.61
- compound: "CC(C)COc1ccc(CNC(=O)N(Cc2ccc(F)cn2)[C@H]2CCN(C)C[C@@H]2O)cc1 (racemic) [Compound I-088]"
  quantitative-readout: 25.7
- compound: "CC(C)COc1ccc(CNC(=O)N(Cc2ccc(F)cn2)C2CCN(C)C3(CC3)C2)cc1 (racemic) [Compound I-136]"
  quantitative-readout: 8.02
- compound: "CCCOc1ccc(CNC(=O)N(Cc2cc(C)n(C)n2)[C@H]2CCN(C)CC23CC3)cc1 [Compound I-126]"
  quantitative-readout: 1.92
- compound: "COc1ccc(CNC(=O)N(Cc2ccc(F)cn2)C2CCN(C)CC2)cc1 [Compound I-043]"
  quantitative-readout: 2.52

Now consider a different compound.
## Input # returns recorded Ki (system: human recombinant 5-HT2A receptor (Homo sapiens (Human), UniProt P28223)) for CC(C)COc1ccc(CNC(=O)N(Cc2cc3ccccc3cn2)C2CCN(C)CC2)cc1 [Compound I-037]
## Output 0.654

----------
Biological target: human recombinant 5-HT2C receptor (Homo sapiens (Human), UniProt P28335)
Sequence (P28335 whole entry, looked up): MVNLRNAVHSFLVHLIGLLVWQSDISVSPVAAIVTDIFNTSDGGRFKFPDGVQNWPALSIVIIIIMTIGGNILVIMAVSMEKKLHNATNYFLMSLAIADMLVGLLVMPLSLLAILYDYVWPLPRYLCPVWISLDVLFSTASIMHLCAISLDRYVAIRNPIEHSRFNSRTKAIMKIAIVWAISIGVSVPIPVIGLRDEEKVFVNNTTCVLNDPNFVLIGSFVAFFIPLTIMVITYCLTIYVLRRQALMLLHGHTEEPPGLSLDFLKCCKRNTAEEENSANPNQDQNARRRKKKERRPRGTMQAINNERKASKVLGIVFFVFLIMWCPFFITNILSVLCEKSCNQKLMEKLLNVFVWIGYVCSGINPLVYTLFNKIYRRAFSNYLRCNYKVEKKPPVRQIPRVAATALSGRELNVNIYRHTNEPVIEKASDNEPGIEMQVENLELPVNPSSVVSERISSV
Assay: biochemical
Assay type: binding
Settings: [3H]-Mesulergine 1 nmol/L, Jump-In HEK cell membrane; read-out: human serotonin 5-HT2C receptor binding activity, Ki
Examples of compounds with documented pKi follow.
pKi field: float, defined as -log10 of concentration (mol/L).

- compound: "CCCOc1ccc(CNC(=O)N(Cc2cc(C)n(C)n2)[C@H]2CCN(C)C[C@H]2F)cc1"
  pKi: 7.95
- compound: "CN1CCC(N(Cc2ccc(F)cn2)C(=O)NCc2ccc(Cl)cc2)CC1"
  pKi: 7.19
- compound: "COc1ccc(CNC(=O)N(Cc2ccc(F)cn2)C2CCN(C)CC2)cc1"
  pKi: 7.25
- compound: "CC(C)COc1ccc(CNC(=O)N(Cc2ccc(F)c3ccoc23)C2CCN(C)CC2)cc1"
  pKi: 7.22
- compound: "CC(C)COc1ccc(CNC(=O)N(Cc2cc3c(cn2)OCCO3)C2CCN(C)CC2)cc1"
  pKi: 6.21

## Input Recorded pKi of `CC(C)CN(C)c1ccc(CNC(=O)N(Cc2ccc(F)cn2)[C@H]2CCN(C)C[C@H]2F)cc1` , please.
## Output 8.67

## Input Recorded pKi of `CC(C)COc1ccc(CNC(=O)N(Cc2ccc(Cl)cn2)C2CCN(C)CC2)cc1` , please.
## Output 8.10

## Input Recorded pKi of `CCc1ccc(CNC(=O)N(Cc2ccc(F)cn2)C2CCN(C)CC2)cc1` , please.
## Output 7.91

## Input Recorded pKi of `CN1CCC(N(Cc2ccc(F)cn2)C(=O)NCc2cccc(O)c2)CC1` , please.
## Output 5.88

## Input Recorded pKi of `CC(C)COc1ccc(CNC(=O)N(Cc2ccn(C)n2)C2CCN(C)CC2)cc1` , please.
## Output 7.29

## Input Recorded pKi of `CC(C)COc1ccc(CC(=O)N(Cc2ccc(F)cn2)C2CCN(C)CC2)cc1` , please.
## Output 7.30

## Input Recorded pKi of `CC(C)CNc1ccc(CNC(=O)N(Cc2ccc(F)cn2)[C@H]2CCNC[C@H]2F)cc1` , please.
## Output 8.82

## Input Recorded pKi of CC(C)COc1ccc(CNC(=O)N(Cc2ccc(F)cn2)C2CCN(C)C3(CC3)C2)cc1 (racemic) , please.
## Output 6.83

src = patent US12527775B2
